target_under_test: PRMT1 (Homo sapiens, UniProt Q99873)
Sequence (Q99873 whole entry): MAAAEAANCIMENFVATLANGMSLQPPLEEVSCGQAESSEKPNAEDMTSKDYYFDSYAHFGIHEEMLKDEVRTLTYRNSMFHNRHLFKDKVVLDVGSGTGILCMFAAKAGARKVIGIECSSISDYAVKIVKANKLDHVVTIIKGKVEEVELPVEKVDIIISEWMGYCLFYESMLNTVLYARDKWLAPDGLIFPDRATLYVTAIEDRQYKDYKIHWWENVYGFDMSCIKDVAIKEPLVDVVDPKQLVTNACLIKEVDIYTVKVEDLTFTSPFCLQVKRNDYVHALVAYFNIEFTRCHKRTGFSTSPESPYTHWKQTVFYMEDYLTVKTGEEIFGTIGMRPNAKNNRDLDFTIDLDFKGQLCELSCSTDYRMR
measurement_notes: PRMT1 Enzymatic Assay (LANCE TR-FRET, methylation of histone H4 at Arg3)
Assay type: biochemical
Design: purchased SignalChem P365-380G
run_parameters: PRMT1 1.5 nM, SAM 1 μM, biotinylated histone H4 (1-21) 25 nM; read-out: PRMT-1 IC50
Note to self: use True only for IC50 readings below 100 nM; a reading exactly at 100 nM still gets False.

Reference set, count: 10
- compound: "CNCCN(C)Cc1nn2c(c1C1CCC(COC)(COC)CC1)CN(C(=O)C1(C)CCCO1)CC2 (stereo not shown)"
  label: "True"
- compound: "CNCCN(C)Cc1nn2c(c1C1CCC(COC)(COC)CC1)CN(C(=O)C1CCC1(F)F)CC2 (stereo not shown)"
  label: "False"
- compound: "COCC1(COC)CCC(c2c(CN(C)CCN)nn3c2CN(C(=O)C2CCCC2)CC3)CC1"
  label: "True"
- compound: "CNCCN(C)Cc1nn2c(c1C1CCC(COC)(COC)CC1)CN(C(=O)C1(C(C)(F)F)COC1)CC2"
  label: "False"
- compound: "CNCCN(C)Cc1nn2c(c1C1CCC(COC)(COC)CC1)CN(C(=O)C1(C)CCOC1)CC2 (stereo not shown)"
  label: "True"
- compound: "CNCCN(C)Cc1nn2c(c1C1CCC(COC)(COC)CC1)CN(C(=O)C1CC(C)(C)C1)CC2 [Example 77]"
  label: "True"
- compound: "CNCCN(C)Cc1nn2c(c1C1CCC(COC)(COC)CC1)CN(C(=O)C1(C)COC1)CC2"
  label: "True"
- compound: "CNCCN(C)Cc1nn2c(c1C1CCC(COC)(COC)CC1)CN(C(=O)C1CC(C(F)(F)F)C1)CC2 (stereo not shown)"
  label: "True"
- compound: "CNCCN(C)Cc1nn2c(c1C1CCC(COC)(COC)CC1)CN(C(=O)C1CCC(OC)CC1)CC2 (stereo not shown)"
  label: "False"
- compound: "CNCCN(C)Cc1nn2c(c1C1CCC(COC)(COC)CC1)CN(C(=O)C(C)(F)F)CC2"
  label: "True"

Q: Consider CNCCN(C)Cc1nn2c(c1C1CCC(COC)(COC)CC1)CN(C(=O)C(C)COC)CC2 (stereo not shown) . Does its IC50 lie strictly below 100 nM?
Result: False

Q: Given the entry COCC1(COC)CCC(c2c(CN(C)CCN)nn3c2CN(C(=O)C2CC(C(F)(F)F)C2)CC3)CC1 (stereo not shown) , would its reported IC50 be below 100 nM?
Result: True

Q: Please check: IC50 for CNCCN(C)Cc1nn2c(c1C1CCC(COC)(COC)CC1)CN(C(=O)C1(C(C)C)CCC1)CC2 , strictly under 100 nM or not?
Result: False

FYI, the data here is from patent US20230416261A1.
